Source of measurements: patent US20070065439A1

Measured EC50, inhibition of IL-1β-induced IL-6 production in MRC-5 cells of individual entries
# measured-on: Recombinant human IL-1beta (rhIL-1b) (human, UniProt P01584 117-269)
# experiment: cell-based or functional assay
Your answer is read as nM, so omit the unit and give the number.

Example cases with answers are listed next.
6.26.1 (antibody, human IgG4, V domains shown, lambda; also called 6.26.4) VH: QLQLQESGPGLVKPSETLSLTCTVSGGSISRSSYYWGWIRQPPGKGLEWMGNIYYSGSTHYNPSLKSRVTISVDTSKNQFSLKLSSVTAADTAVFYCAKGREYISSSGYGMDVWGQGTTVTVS VL: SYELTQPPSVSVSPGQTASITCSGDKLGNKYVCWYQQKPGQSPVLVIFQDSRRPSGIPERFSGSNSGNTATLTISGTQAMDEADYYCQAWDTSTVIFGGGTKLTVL = 0.591
9.11.1 (antibody, human IgG4, V domains shown, lambda; also called 9.11.3) VH: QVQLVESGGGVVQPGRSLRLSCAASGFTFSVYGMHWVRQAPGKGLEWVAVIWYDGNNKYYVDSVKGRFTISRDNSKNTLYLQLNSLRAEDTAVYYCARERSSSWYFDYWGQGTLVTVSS VL: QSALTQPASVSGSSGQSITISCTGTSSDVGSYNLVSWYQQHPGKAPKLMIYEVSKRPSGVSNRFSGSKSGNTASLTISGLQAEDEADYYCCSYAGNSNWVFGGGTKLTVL = 2.67

Req: What does the data say about its EC50, inhibition of IL-1β-induced IL-6 production in MRC-5 cells? Entry: 9.31.1 (antibody, human IgG4, V domains shown, lambda; also called 9.31.3) VH: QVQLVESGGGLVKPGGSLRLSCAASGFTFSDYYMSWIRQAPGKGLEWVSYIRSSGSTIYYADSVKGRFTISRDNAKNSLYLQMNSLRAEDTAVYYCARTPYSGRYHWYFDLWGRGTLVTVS VL: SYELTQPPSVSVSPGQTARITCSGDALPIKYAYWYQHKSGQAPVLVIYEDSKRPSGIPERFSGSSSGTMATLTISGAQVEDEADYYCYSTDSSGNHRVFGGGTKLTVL
Resp: 14.3
